Values compiled from patent US6593369B2.

- experiment-summary: Solubility in water
- Assay type: physicochemical
experimental-readout: solubility (µg/mL)
Numeric answer only, unit µg/mL assumed.

Q. Report solubility, nothing else, for this compound: CCCCC[C@H](O)/C=C/[C@H]1[C@H](O)CC(=O)[C@@H]1CCCCCCC(=O)O [PGE-1]
A. 80
